- Test system: Inter-leukin 2 (IL-2) production by activated Human Primary T Lymphocytes
- procedure-text: Primary T cell assay: inhibition of IL-2 production by activated human primary CD4 positive T lymphocytes
- Assay type: cell-based
- setup-conditions: Homo sapiens, CD4 positive, Table 5; mean IC50 value; CD4 positive T cells activated with anti-CD3/anti-CD28, IL-2 by ELISA; read-out: IC50 (blocking IL-2 production)
- Description: Summary of Primary T Cell Assay. Inhibitors of the lck SH2 domain were assayed for their ability to block Inter-leukin 2 (IL-2) production by activated Human Primary T Lymphocytes. […] As SH2 domain containing proteins are intracellular, any therapeutic agent must be able to cross biological membranes. […] These characteristics may be quantified by observing inhibition in IL-2 production in human blood CD4 positive T-lymphocytes after T cell receptor and CD28 cross-linking.
pIC50: −log10 of the molar value.
measurement-type: pIC50

1. CCC(CC)(C(=O)N[C@@H](Cc1ccc(C(C)(C)C(=O)O)cc1)C(=O)Nc1c(C)ccn(Cc2ccc(OC)cc2)c1=O)c1ccc2ccccc2c1 [Compound 123] | 4.46
2. CCOc1ccc(Cn2ccc(C)c(NC(=O)C(Cc3ccc(C(C)(C)C(=O)O)cc3)NC(=O)Cc3ccc4ccccc4c3)c2=O)cc1 (stereo not drawn) [Compound 135] | 4.46
3. Cc1ccn(Cc2ccc3c(c2)OCO3)c(=O)c1NC(=O)C(Cc1ccc(C(C)(C)C(=O)O)cc1)NC(=O)Cc1ccc2ccccc2c1 (stereo not drawn) [Compound 155] | 4.12
4. CCOc1ccc(Cn2ccc(C)c(NC(=O)C(Cc3ccc(C(C)(C)C(=O)O)cc3)NC(=O)C(C)(C)c3ccc4ccccc4c3)c2=O)cc1 (stereo not drawn) [Compound 139] | 4.25

(1) COc1ccc(Cn2ccc(C)c(NC(=O)[C@H](Cc3ccc(C(C)(C)C(=O)O)cc3)NC(=O)C(C)(C)c3ccc(C(C)C)cc3)c2=O)cc1 [Compound 118]
(2) COc1ccc(Cn2cc(Br)c(C)c(NC(=O)[C@H](Cc3ccc(C(C)(C)C(=O)O)cc3)NC(=O)Cc3ccc4ccccc4c3)c2=O)cc1 [Compound 220]
(3) COc1ccc(Cn2ccc(C)c(NC(=O)[C@H](Cc3ccc(C(C)(C)C(=O)O)cc3)NC(=O)Cc3c(C)cc(C)cc3C)c2=O)cc1 [Compound 117]
(4) CCCCCn1ccc(C)c(NC(=O)C(Cc2ccc(C(C)(C)C(=O)O)cc2)NC(=O)Cc2ccc3ccccc3c2)c1=O (stereo not drawn) [Compound 192]
Task: Exam item: list the entries in increasing order of pIC50. The response must list the labels following the requested ordering.
Result: 4, 3, 1, 2

(1) CCC(C(=O)N[C@@H](Cc1ccc(C(C)(C)C(=O)O)cc1)C(=O)Nc1c(C)ccn(Cc2ccc(OC)cc2)c1=O)c1ccc2ccccc2c1 (stereo partly drawn) [Compound 109]
(2) Cc1ccn(Cc2ccccc2Oc2ccccc2)c(=O)c1NC(=O)C(Cc1ccc(C(C)(C)C(=O)O)cc1)NC(=O)Cc1ccc2ccccc2c1 (stereo not drawn) [Compound 156]
Task: So which one has the bigger pIC50 here, 1 or 2 ? Please indicate the selected item by its label.
Result: 2
(2: 4.34, 1: 4.11)

(a) COc1ccc(Cn2ccc(C)c(NC(=O)C(Cc3ccc(C4(C(=O)O)CCCC4)cc3)NC(=O)Cc3ccc4ccccc4c3)c2=O)cc1 (racemic) [Compound 108]
(b) COc1ccc(Cn2ccc(C)c(NC(=O)[C@H](Cc3ccc(C(C)(C)C(=O)O)cc3)NC(=O)N(C)c3cccc4ccccc34)c2=O)cc1 [Compound 133]
Task: Could you kindly indicate whether a or b has the higher pIC50 value? API: response body contains the label of the selected item.
Result: a
